Source listed as PubChem BioAssay (NCI).

assay: NCI Yeast Anticancer Drug Screen. Data for the mlh1 rad18 strain (AID 175); conditions: S. cerevisiae mlh1 rad18 strain growth inhibition; at 50.0 µM; active compounds read high
Compounds without any hit were thinned out: in the full panel of roughly 79,000, 15% have a hit.
The following compounds are listed with their measured growth inhibition values.
Give just the numeric value; % need not be written.

Nc1ncnc2nc[nH]c12.[Ag] ... 99.7
COc1ccccc1C(=O)c1c(C(=O)O)ccc2ccccc12 ... 48.6
CCN1CCC(O)(/C=C/c2ccccc2)C(C(=O)/C=C/c2ccccc2)C1 (configuration not stated) ... 96
O=NN(CCCl)C(=O)Nc1cc(Cl)ccc1O ... 90.1

Lab note: measured growth inhibition of COc1ccc(C2Cc3cc(OC)ccc3C2=O)cc1 (configuration not stated) was 57.4

Lab note: measured growth inhibition of Nc1ccc2nc(N)sc2c1 was -6.65

Lab note: measured growth inhibition of CCN(CC)CCNc1c(O)cc(C)c2sc3ccccc3c(=O)c12 was 98.3
